- Tested on: Staphylococcus aureus
- assayNotes: Growth inhibition of Staphylococcus aureus ATCC 25923 by microdilution method
- Assay type: organism-based
- conditions: in vivo

querySmiles | measuredTarget | inequalityOperator | MIC [µg/mL]
COC(=O)[C@H]1[C@H]2C[C@@H]3c4[nH]c5cc(OC)ccc5c4CCN3C[C@H]2C[C@@H](OC(=O)c2cc(OC)c(OC)c(OC)c2)[C@@H]1OC | Staphylococcus aureus | > | 100
CCCOc1ccc(-c2cc(OCCN3CCCCC3)c3cc(OCc4ccccc4)ccc3n2)cc1 | Staphylococcus aureus | = | 100
O=C(O)c1cn(C2CC2)c2cc(N3CCNCC3)c(F)cc2c1=O | Staphylococcus aureus | = | 0.63
